test system: Methicillin-resistant Staphylococcus aureus (MRSA, ATCC 33591); test: Minimum bactericidal concentration (MBC) assay; format: cell-based; set-up: unit: µg/mL; details: Tables 11-21, no unit printed
No end group written: not given here.
Measured MBC MRSA values are reported for all entries that follow.
measurementLabel: MBC MRSA

>>> resultvalue("KKMMKKGGKFGGFMAIGMGIR [Peptide K4-T69G]")
3
>>> resultvalue("KTMMQSGGTFGTFMAIGMGIRQ [Peptide 5878-Q]")
"180 µg/mL"
>>> resultvalue("KTMMQSGGAFGTFMAIGMGIR [KU-5878-T66A]")
"> 300 µg/mL"
>>> resultvalue("KTMMQSGGTFGTFMA-GMGIR [Peptide 5878-4731]")
"> 300 µg/mL"
>>> resultvalue("KTMMQSGGTFGTF-AIG-GIR [5878-d71M, d75M]")
"300 µg/mL"
>>> resultvalue("KKMMKKGGK-GTFMAIGMGIR [Peptide 5878-K4-d67F]")
"4 µg/mL"
>>> resultvalue("KKMMKKGGKFG-F--IGMGIR [d 69T 71M 72A]")
"4 µg/mL"
>>> resultvalue("KTMMQSGGTFGTFMAIGMGIA [KU-5878-R78A]")
"> 300 µg/mL"
>>> resultvalue("KKMMKK-GKFGTFMAIGMGIR [5878-K4-d64G(=d65G)]")
"2 µg/mL"
>>> resultvalue("KTMMRSGGTFGTFMAIGMGIR [KU-5878-Q62R]")
"90 µg/mL"
>>> resultvalue("KKMMKKGG-FGTFMAIGMGIR [Peptide 5878-K4-d66K]")
"4 µg/mL"
>>> resultvalue("KTMMQSGGTWGTFMAIGMGIR [KU-5878-F67W]")
"90 µg/mL"
>>> resultvalue("-TMMQSGGTFGTFMAIGMGIR [Peptide 5878-d58K]")
"> 300 µg/mL"
>>> resultvalue("KKMMKKGGKFGTFMAIGM-IR [Peptide 5878-K4-d76G]")
"4 µg/mL"
>>> resultvalue("KKMMKKGGKFGTFM-IG-GIR [Peptide K4-d72A-d75M]")
"200 µg/mL"
>>> resultvalue("KT-MQSGGTFGTFM-IG-GIR [5878-d60M, d72A, d75M]")
"300 µg/mL"
>>> resultvalue("KKMMKKGGKFGTFMA-GMGIR [Peptide 5878-K4-d73I]")
"> 300 µg/mL"
>>> resultvalue("KKMMKKGGKFGTFMAIG-GIR [Peptide 5878-K4-d75M]")
"2 µg/mL"
>>> resultvalue("KTMMSSGGTFGTFMAIGMGIR [KU-5878-Q62S]")
"> 300 µg/mL"
>>> resultvalue("KTMMQTGGTFGTFMAIGMGIR [KU-5878-S63T]")
"> 300 µg/mL"
>>> resultvalue("-KMMKKGGKFGTFMAIGMGIR [5878-K4-d58K(=d59K)]")
"2 µg/mL"
>>> resultvalue("KTMMQSGGT-GTFMAIGMGIR [Peptide 5878-d67F]")
"200 µg/mL"
>>> resultvalue("KKMMKKGGKFGTF-AIGMGIR [Peptide 5878-K4-d71M]")
"4 µg/mL"
